assayedTarget: human MC3R (human, UniProt P41968 1-323)
Sequence (P41968 whole entry): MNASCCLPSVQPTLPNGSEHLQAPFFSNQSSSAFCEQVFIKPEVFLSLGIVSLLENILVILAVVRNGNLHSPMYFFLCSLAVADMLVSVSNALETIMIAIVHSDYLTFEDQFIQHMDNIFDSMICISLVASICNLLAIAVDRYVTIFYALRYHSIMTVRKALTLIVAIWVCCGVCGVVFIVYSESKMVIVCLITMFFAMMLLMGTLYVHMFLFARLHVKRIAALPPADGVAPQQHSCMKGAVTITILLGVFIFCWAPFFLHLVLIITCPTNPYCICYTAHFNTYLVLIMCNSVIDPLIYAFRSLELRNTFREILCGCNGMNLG
assayRemarks: cell-based or functional assay
Non-standard residues stand in square brackets, D forms with d. Phe(4-I) = N[C@@H](Cc1ccc(I)cc1)C(=O)O; 2Nal = N[C@@H](Cc1ccc2ccccc2c1)C(=O)O; Nle = CCCC[C@H](N)C(=O)O
Rule: MC3R selectivity (relative to MC4R) below 70 gives condition met, anything at or above gives condition not met.

Would you kindly verify if MC3R selectivity (relative to MC4R) of Ac-[Nle][dA]HFR[dW][dF]-NH2 (SMILES CCCC[C@H](NC(C)=O)C(=O)N[C@H](C)C(=O)N[C@@H](Cc1c[nH]cn1)C(=O)N[C@@H](Cc1ccccc1)C(=O)N[C@@H](CCCNC(=N)N)C(=O)N[C@H](Cc1c[nH]c2ccccc12)C(=O)N[C@H](Cc1ccccc1)C(N)=O) [CTX-1542] is strictly less than 70?
condition met

Would you kindly verify if MC3R selectivity (relative to MC4R) of Ac-[Nle][dA]H[Phe(4-I)]R[dW]DR-NH2 (SMILES CCCC[C@H](NC(C)=O)C(=O)N[C@H](C)C(=O)N[C@@H](Cc1c[nH]cn1)C(=O)N[C@@H](Cc1ccc(I)cc1)C(=O)N[C@@H](CCCNC(=N)N)C(=O)N[C@H](Cc1c[nH]c2ccccc12)C(=O)N[C@@H](CC(=O)O)C(=O)N[C@@H](CCCNC(=N)N)C(N)=O) [CTX-1170] is strictly less than 70?
condition met

Would you kindly verify if MC3R selectivity (relative to MC4R) of Ac-[Nle][dA]HFR[dW]DRFV-OH (SMILES CCCC[C@H](NC(C)=O)C(=O)N[C@H](C)C(=O)N[C@@H](Cc1c[nH]cn1)C(=O)N[C@@H](Cc1ccccc1)C(=O)N[C@@H](CCCNC(=N)N)C(=O)N[C@H](Cc1c[nH]c2ccccc12)C(=O)N[C@@H](CC(=O)O)C(=O)N[C@@H](CCCNC(=N)N)C(=O)N[C@@H](Cc1ccccc1)C(=O)N[C@H](C(=O)O)C(C)C) [CTX-1538] is strictly less than 70?
condition not met

Would you kindly verify if MC3R selectivity (relative to MC4R) of Ac-[Nle][dA]H[2Nal]R[dW]DRFG-OH (SMILES CCCC[C@H](NC(C)=O)C(=O)N[C@H](C)C(=O)N[C@@H](Cc1c[nH]cn1)C(=O)N[C@@H](Cc1ccc2ccccc2c1)C(=O)N[C@@H](CCCNC(=N)N)C(=O)N[C@H](Cc1c[nH]c2ccccc12)C(=O)N[C@@H](CC(=O)O)C(=O)N[C@@H](CCCNC(=N)N)C(=O)N[C@@H](Cc1ccccc1)C(=O)NCC(=O)O) [CTX-1512] is strictly less than 70?
condition not met

Would you kindly verify if MC3R selectivity (relative to MC4R) of H-MGHFR[dW]DRFG-OH (SMILES CSCC[C@H](N)C(=O)NCC(=O)N[C@@H](Cc1c[nH]cn1)C(=O)N[C@@H](Cc1ccccc1)C(=O)N[C@@H](CCCNC(=N)N)C(=O)N[C@H](Cc1c[nH]c2ccccc12)C(=O)N[C@@H](CC(=O)O)C(=O)N[C@@H](CCCNC(=N)N)C(=O)N[C@@H](Cc1ccccc1)C(=O)NCC(=O)O) [CTX-1547] is strictly less than 70?
condition met

Source listed as patent US20240287154A1.
